Test system: ChaGo-K-1
Experiment: relative viability (nuclei count vs DMSO), 5 days (fraction); higher = more cells survive
Conditions: first compound 0.08 µM
Known relative viability of a selection of molecules
// return just the number, without any unit appended

O=c1cc(-c2cccc3c2Sc2ccccc2S3)oc(N2CCOCC2)c1 + NC(=O)Nc1cc(-c2cccc(F)c2)sc1C(=O)N[C@H]1CCCNC1 [AZD7762] (partner 0.2 µM) = 0.827
COc1nc(C)cnc1NS(=O)(=O)c1cccnc1-c1ccc(-c2nnco2)cc1 [Zibotentan] + CC1(C)CCC(c2ccc(Cl)cc2)=C(CN2CCN(c3ccc(C(=O)NS(=O)(=O)c4ccc(N[C@H](CCN5CCOCC5)CSc5ccccc5)c(S(=O)(=O)C(F)(F)F)c4)cc3)CC2)C1 [Navitoclax] (partner 0.5 µM) = 0.95
O=c1cc(-c2cccc3c2Sc2ccccc2S3)oc(N2CCOCC2)c1 + Nc1ncn([C@H]2C[C@H](O)[C@@H](CO)O2)c(=O)n1 [Decitabine] (partner 2 µM) = 0.542
COc1nc(C)cnc1NS(=O)(=O)c1cccnc1-c1ccc(-c2nnco2)cc1 [Zibotentan] + Nc1ncn([C@H]2C[C@H](O)[C@@H](CO)O2)c(=O)n1 [Decitabine] (partner 2 µM) = 0.512

Then there is this molecule:
ChaGo-K-1 assay, molecule COc1nc(C)cnc1NS(=O)(=O)c1cccnc1-c1ccc(-c2nnco2)cc1 [Zibotentan] + NC(=O)Nc1cc(-c2cccc(F)c2)sc1C(=O)N[C@H]1CCCNC1 [AZD7762] (partner 0.2 µM) , recorded relative viability = 0.912

Reference for the values: the supplement of paper PMC10307832
